Source listed as PubChem BioAssay (NCI).

# experiment: NCI Yeast Anticancer Drug Screen. Data for the mlh1 rad18 strain (AID 175)
# reported-conditions: S. cerevisiae mlh1 rad18 strain growth inhibition; at 50.0 µM; hits give high values
# Experimental: Growth inhibition of yeast strains with defined genetic alterations is measured as a screen for potential anti-cancer activity. Selected strains with alterations in DNA damage repair or cell cycle control were exposed to compounds and growth inhibition was measured relative to vehicle treated controls. The strain used in this assay is mlh1 rad18
About 79,000 compounds went through this panel and 15% of them were active in at least one assay; those are over-represented in the sample as a whole.
So I've got a bunch of compounds here, and I need their growth inhibition values.
Numbers only; they are read as %.

Prompt: Fill in growth inhibition for record `O=C1c2ccc([N+](=O)[O-])cc2C(=O)N1CCBr`
Response: 13.1

Prompt: Fill in growth inhibition for record CC(C)c1ccc2c(c1)CCC1C2(C)CCCC1(C)C(O)c1ccccc1 (stereo not given)
Response: 32.1

Prompt: Fill in growth inhibition for record `C=CCOc1ccc2cc(Br)ccc2c1`
Response: 14.9

Prompt: Fill in growth inhibition for record Cc1ccc(NC(=O)C2C(=O)N(c3ccc(C)c(C)c3)C(=O)C2N=N)cc1C (stereo not given)
Response: 44.9

Prompt: Fill in growth inhibition for record `Clc1ccc(-c2nnc(-c3ccc4ccccc4c3)o2)cc1`
Response: -25.4

Prompt: Fill in growth inhibition for record c1ccc(C(NC2=NCCO2)C2CC2)cc1 (stereo not given)
Response: -54.9

Prompt: Fill in growth inhibition for record O=c1c2c(oc3cc(OCC4CO4)ccc13)CCC2 (stereo not given)
Response: -21.4

Prompt: Fill in growth inhibition for record CCOC(=O)CCC(NC(=O)OCc1ccccc1)C(=O)NC(CCC(=O)OCC)C(=O)NC(CCC(=O)OCC)C(=O)NC(CCC(=O)OCC)C(=O)NC(CCC(=O)OCC)C(=O)NC(CCC(=O)OCC)C(=O)NC(CCC(=O)OCC)C(=O)OCC (stereo not given)
Response: 2.2

Prompt: Fill in growth inhibition for record `COc1cc2c(c(OC)c1OC)CCCC2=O`
Response: -4.9

Prompt: Fill in growth inhibition for record `CN(C)C=Nc1cc2c3c(c1)CCCN3CCC2`
Response: 31.4
